- measured on: rat-species vanilloid receptor 1 (VR1/TRPV1) (Rattus norvegicus)
- Construct: endogenous in cells; host or cells: primary cells dissociated from rat dorsal root ganglia (DRG)
- Sequence (O35433 whole entry): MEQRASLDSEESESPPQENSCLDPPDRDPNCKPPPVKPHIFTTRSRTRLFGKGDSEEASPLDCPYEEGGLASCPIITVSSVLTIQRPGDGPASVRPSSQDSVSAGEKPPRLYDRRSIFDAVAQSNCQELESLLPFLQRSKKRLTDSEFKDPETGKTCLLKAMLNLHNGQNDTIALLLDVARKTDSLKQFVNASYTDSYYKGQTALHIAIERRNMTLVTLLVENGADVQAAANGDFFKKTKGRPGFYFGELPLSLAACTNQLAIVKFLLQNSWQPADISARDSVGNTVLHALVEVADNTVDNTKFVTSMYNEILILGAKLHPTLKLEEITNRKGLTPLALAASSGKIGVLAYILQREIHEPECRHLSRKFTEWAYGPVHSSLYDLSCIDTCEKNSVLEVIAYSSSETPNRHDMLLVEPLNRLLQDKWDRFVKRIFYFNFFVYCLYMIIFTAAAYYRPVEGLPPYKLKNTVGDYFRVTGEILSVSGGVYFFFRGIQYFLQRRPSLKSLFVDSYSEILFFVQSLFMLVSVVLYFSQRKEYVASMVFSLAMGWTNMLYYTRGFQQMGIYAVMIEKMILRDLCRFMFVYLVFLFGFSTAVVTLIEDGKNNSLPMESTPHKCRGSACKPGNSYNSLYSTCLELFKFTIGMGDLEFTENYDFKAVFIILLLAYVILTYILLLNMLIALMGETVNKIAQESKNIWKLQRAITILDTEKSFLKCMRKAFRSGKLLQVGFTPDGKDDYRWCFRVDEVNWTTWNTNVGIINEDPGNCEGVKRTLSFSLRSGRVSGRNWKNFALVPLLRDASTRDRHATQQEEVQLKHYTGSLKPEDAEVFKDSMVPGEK
- test summary: Functional testing on vanilloid receptor 1 (VR1/TRPV1): FLIPR Ca2+ inflow assay in rat dorsal root ganglia cells (% activation / % inhibition vs capsaicin)
- Type: cell-based
- test parameters: inhibition compared to 10 μM CP (capsaicin)
measured attribute: inhibition at 10 µM (%)

Worked cases, answers included:
CC(C)(C)c1ccc(C(/C=C/c2ccccc2)=C/C(=O)N2CCC3(CC2)CC(c2ccccc2)=NO3)cc1 = 95
Cc1ccc(C2=NOC3(CCN(C(=O)Nc4ccc(Cl)c(C(F)(F)F)c4)CC3)C2)cc1 = 45.1
O=C(C=Cc1ccc(C(F)(F)F)cc1)N1CCC2(CC1)CC(c1ccccc1)=NO2 = 82
CCc1ccc(NC(=O)N2CCC3(CC2)CC(c2ccc(C(F)(F)F)cc2)=NO3)cc1 = 47.4

(P) CC(C)(C)c1ccc(NC(=O)N2CCC3(CC(c4ccccc4)=NO3)C2)cc1 (stereo not shown)
(Q) CC(C)(C)c1ccc(C2=NOC3(CCN(C(=O)Nc4ccc(I)cc4)CC3)C2)cc1
(R) CC(C(=O)N1CCC2(CC1)CC(c1cccc(F)c1)=NO2)c1ccc(NS(C)(=O)=O)c(F)c1 (stereo not shown)
Task: Put the items in sequence by inhibition at 10 µM, from largest down. Put the labels in the requested order and list them out.
Output: P, Q, R

(I) COc1cccc(C2=NOC3(CCN(C(=O)NCCc4ccccc4)CC3)C2)c1
(II) CC1CN(C(=O)Nc2ccc(C(C)(C)C)cc2)CCC12CC(c1ccccc1)=NO2 (stereo not shown)
Task: Between item I and item II , which reported inhibition at 10 µM is smaller? The response must carry the label of the picked entry.
Output: I

(P) CCCc1ccccc1NC(=O)N1CCC2(CC1)CC(c1ccccc1)=NO2
(Q) CC(C)c1ccc(C=CC(=O)N2CCC3(CC2)CC(c2ccccc2)=NO3)cc1
(R) O=C(/C=C/c1ccc(C(F)(F)F)nc1N1CCCCC1)N1CCC2(CC1)CC(c1cccc(F)c1)=NO2
Task: Sort the compounds on inhibition at 10 µM; start with the lowest figure. Please respond with the labels ordered as the question requires.
Output: P, Q, R

---

- measured on: vanilloid receptor (VR1) (Homo sapiens, UniProt Q8NER1)
- Construct: expressed in transfected cells; host or cells: CHO K1 cells (ECACC), stably transfected
- Sequence (Q8NER1 whole entry): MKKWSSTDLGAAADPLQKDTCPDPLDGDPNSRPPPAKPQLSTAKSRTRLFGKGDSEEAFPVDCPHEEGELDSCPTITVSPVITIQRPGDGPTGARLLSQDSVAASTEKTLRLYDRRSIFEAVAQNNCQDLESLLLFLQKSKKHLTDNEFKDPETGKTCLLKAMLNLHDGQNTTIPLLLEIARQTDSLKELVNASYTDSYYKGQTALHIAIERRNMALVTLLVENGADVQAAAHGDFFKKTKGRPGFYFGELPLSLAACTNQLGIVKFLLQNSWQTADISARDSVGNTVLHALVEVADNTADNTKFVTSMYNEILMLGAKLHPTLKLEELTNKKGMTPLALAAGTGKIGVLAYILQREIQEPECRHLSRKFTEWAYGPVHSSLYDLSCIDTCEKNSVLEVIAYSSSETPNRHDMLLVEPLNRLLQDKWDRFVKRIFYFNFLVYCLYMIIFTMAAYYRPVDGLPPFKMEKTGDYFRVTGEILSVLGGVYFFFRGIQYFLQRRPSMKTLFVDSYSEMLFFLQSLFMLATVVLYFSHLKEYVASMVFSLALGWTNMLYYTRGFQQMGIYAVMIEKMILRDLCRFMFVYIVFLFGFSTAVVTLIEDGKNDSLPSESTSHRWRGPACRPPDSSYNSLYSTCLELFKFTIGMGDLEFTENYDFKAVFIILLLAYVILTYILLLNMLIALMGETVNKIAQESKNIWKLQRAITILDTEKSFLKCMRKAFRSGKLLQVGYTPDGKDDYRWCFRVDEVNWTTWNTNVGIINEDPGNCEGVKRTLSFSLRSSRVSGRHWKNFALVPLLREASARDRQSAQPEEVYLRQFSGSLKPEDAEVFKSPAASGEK
- test summary: Functional testing on vanilloid receptor (VR1): FLIPR Ca2+ inflow assay in CHO K1 cells stably transfected with the VR1 gene
- Type: cell-based
- test parameters: CHO-K1, stimulation compared to 10 μM CP (capsaicin)
measured attribute: activation at 10 µM (%)

COc1cccc(C2=NOC3(CCN(C(=O)Nc4cccc(Br)c4)CC3)C2)c1 = -0.04

(P) COc1cccc(C2=NOC3(CCN(C(=O)Nc4cccc(F)c4)CC3)C2)c1
(Q) CC(C)(C)c1ccc(C2=NOC3(CCN(C(=O)Nc4ccc(I)cc4)CC3)C2)cc1
(R) CC(C)(C)c1ccc(/C=C/C(=O)N2CCC3(CC2)CC(c2ccccc2)=NO3)c(Br)c1
(S) O=C(Nc1cccc(Br)c1)N1CCC2(CC1)CC(c1ccccc1)=NO2
Task: Rank ascending by activation at 10 µM. As an answer, provide the labels arranged in the order called for.
Output: Q, R, S, P
(Q: -0.04%, R: 0%, S: 0.11%, P: 5.9%)
